Biological target: Gal(b1-3)GlcNAc(b1-2)Man(a1-3)[Gal(b1-3)GlcNAc(b1-2)Man(a1-6)]Man(b1-4)GlcNAc(b1-4)[Fuc(a1-6)]GlcNAc
Assay: glycan array binding signal (z-score within array); higher = stronger binding
Conditions: glycan notation: IUPAC condensed, linker removed
Many of the other results were omitted from the sample, so the strongest signals are more common in it than they were.
measured attribute: glycan array binding signal (z-score)
Please state the value as a number alone, without comment.

[
  {
    "binder": "SCA (Schizophyllum commune) (protein) MGIDQGVYLITNAGSGTAATLKDGYVKGWERIKGKEQLNQLWFVKSVKTSASDPGYAAFNLATNKVLDLEKGLADRGTPILGWDYHEGDNQHWVIKKQADGKYYKIQSVKTQTFVDLNNGGKDNGTKIQGWVGSWDETNSHQRWVFNQFSATGSRIKSILDTHPKIHGKVIVEWPDRIYFTPDQYIFEAIWAKTGLADIKPRDPLFQSEAYEKVFKGWVVSRAQEIIKVDGFDILVGSLSLVEKSTQKIKVLDVSVRTSDDKSPDLSQIVFFDPESGRTLVDIPEGYEVNSVII",
    "data value": -0.159
  },
  {
    "binder": "Clec2 (Mus musculus), Q9JL99 (protein) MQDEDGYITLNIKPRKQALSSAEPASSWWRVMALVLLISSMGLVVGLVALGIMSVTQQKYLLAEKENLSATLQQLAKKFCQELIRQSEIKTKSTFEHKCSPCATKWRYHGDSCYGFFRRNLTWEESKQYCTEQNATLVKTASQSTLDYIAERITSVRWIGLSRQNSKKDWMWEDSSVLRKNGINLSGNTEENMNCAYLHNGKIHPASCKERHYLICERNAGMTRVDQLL",
    "data value": -0.411
  }
]

Attention now shifts to the item below.
input: Consider the binder OS9 (Arabidopsis thaliana) (protein) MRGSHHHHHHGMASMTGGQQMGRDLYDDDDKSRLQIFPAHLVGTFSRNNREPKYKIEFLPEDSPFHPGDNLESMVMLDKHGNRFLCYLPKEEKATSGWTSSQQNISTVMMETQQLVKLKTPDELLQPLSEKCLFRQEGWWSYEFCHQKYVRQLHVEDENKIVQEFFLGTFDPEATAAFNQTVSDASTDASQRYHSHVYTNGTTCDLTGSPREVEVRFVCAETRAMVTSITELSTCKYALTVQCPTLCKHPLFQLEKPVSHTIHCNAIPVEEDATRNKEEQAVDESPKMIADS and give its recorded glycan array binding signal (z-score).
output: -0.157

Numbers sourced from the supplement of paper PMC8728848.
